assay_summary: PAMPA (parallel artificial membrane permeability assay)
Format: in vitro ADME
protocol_conditions: PAMPA; membrane permeation rate (Pe); 50 mM MOPSO buffer pH 6.5 with 5.0% glycocholic acid, 37° C., 18 hours; read-out: iPAMPA Pe
Starred links: 1 amine or outer side, 2 acyl side, 3 side chain; linkers in the order of their positions; H or OH if unused. Positions of bridges follow the written chain, without caps; N, C: chain ends. Non-standard residues stand in square brackets, D forms with d. Residues, ends and D or L forms follow the SMILES beside them. *: point of attachment. Phe(3-(CH2)4CO) = O=C([C@H](Cc1cccc(CCCCC(=O)[*:3])c1)N[*:1])[*:2]; NMeF = CN[C@@H](Cc1ccccc1)C(=O)O; NMeL = CN[C@@H](CC(C)C)C(=O)O; NMeV = CN[C@H](C(=O)O)C(C)C; NMeA = CN[C@@H](C)C(=O)O; Piperidide = C1CCN(*)CC1; Sar = CNCC(=O)O
Quick list: Papp at 18 hours, 50 µM per entry.
Field: numeric (×10⁻⁶ cm/s). Do not append units.

compound	unit_of_measure	Papp at 18 hours, 50 µM
CC[C@H](C)[C@@H]1NC(=O)CCCCc2cccc(c2)C[C@@H](C(=O)N2CCCCC2)NC(=O)[C@H](C)N(C)C(=O)[C@H](CC(C)C)N(C)C(=O)CN(C)C(=O)[C@H]([C@@H](C)O)NC(=O)[C@H](Cc2ccccc2)N(C)C(=O)[C@H](CC(C)C)N(C)C(=O)[C@H](C)NC(=O)[C@H](C(C)C)N(C)C(=O)[C@H](Cc2ccccc2)N(C)C1=O [DP-876] (I[NMeF][NMeV]A[NMeL][NMeF]T[Sar][NMeL][NMeA][Phe(3-(CH2)4CO)]-Piperidide; lactam N-11)	×10⁻⁶ cm/s	55

Turning now to a further record.
Query block: Return the recorded Papp at 18 hours, 50 µM value; entry: CC(C)C[C@H]1C(=O)N[C@@H](Cc2ccccc2)C(=O)N(C)[C@@H](C(C)C)C(=O)N(C)[C@@H](C)C(=O)N(C)[C@@H](Cc2ccccc2)C(=O)N[C@@H]([C@@H](C)O)C(=O)NCC(=O)N[C@H](C(=O)N(C)[C@@H](Cc2ccccc2)C(=O)N[C@@H](C)C(=O)N2CCCCC2)CC(=O)N(C)[C@@H](C)C(=O)N[C@@H](C)C(=O)N1C [DP-375] ([NMeA]A[NMeL]F[NMeV][NMeA][NMeF]TGD[NMeF]A-Piperidide; lactam N-10)
Result block: 19

====

assay_summary: PAMPA (parallel artificial membrane permeability assay)
Format: in vitro ADME
protocol_conditions: PAMPA; membrane permeation rate (Pe); 50 mM MOPSO buffer pH 6.5 with 5.0% glycocholic acid, 37° C., 18 hours; read-out: iPAMPA Pe
Positions of bridges follow the written chain, without caps; N, C: chain ends. Non-standard residues stand in square brackets, D forms with d. Residues, ends and D or L forms follow the SMILES beside them. *: point of attachment. NMeF = CN[C@@H](Cc1ccccc1)C(=O)O; NMeL = CN[C@@H](CC(C)C)C(=O)O; NMeA = CN[C@@H](C)C(=O)O; Piperidide = C1CCN(*)CC1; Sar = CNCC(=O)O; tBu = CC(C)(C)*
Measured Papp at 18 hours, 50 µM, listed per entry for reference.
// unit must come after the numeric part

Query block: Indicate the recorded Papp at 18 hours, 50 µM value for this compound: CC(C)C[C@@H]1NC(=O)[C@H](CC(C)C)N(C)C(=O)[C@H](C)N(C)C(=O)[C@@H](C(C)C)NC(=O)C[C@@H](C(=O)N2CCCCC2)NC(=O)[C@H](CCC(N)=O)NC(=O)[C@H](CC(C)C)N(C)C(=O)CN(C)C(=O)[C@H](CC(C)C)N(C)C(=O)[C@H](Cc2ccccc2)NC(=O)[C@H](Cc2ccccc2)N(C)C1=O [DP-617] ([dV][NMeA][NMeL]L[NMeF]F[NMeL][Sar][NMeL]QD-Piperidide; lactam N-11)
Result block: 29 ×10⁻⁶ cm/s

Query block: Tell us which Papp at 18 hours, 50 µM value is on record for CC(C)C[C@H]1C(=O)N[C@@H](COC(C)(C)C)C(=O)N[C@H](C(=O)N2CCCCC2)CC(=O)N(C)CC(=O)N[C@@H]([C@@H](C)O)C(=O)N(C)[C@@H](C)C(=O)N(C)[C@@H](Cc2ccccc2)C(=O)N(C)[C@@H](Cc2ccccc2)C(=O)N1C [DP-709] ([Sar]T[NMeA][NMeF][NMeF][NMeL]S(tBu)D-Piperidide; lactam N-8)
Result block: 35 ×10⁻⁶ cm/s

Query block: Give me measured Papp at 18 hours, 50 µM, please, for this compound: CC(C)C[C@@H](C(=O)N[C@@H](C)C(=O)N1CCCCC1)N(C)C(=O)[C@@H]1CC(=O)N[C@H](C(C)C)C(=O)N[C@@H]([C@@H](C)O)C(=O)N(C)[C@@H](C)C(=O)N(C)[C@@H](Cc2ccccc2)C(=O)N(C)[C@@H](Cc2ccccc2)C(=O)N[C@@H](COC(C)(C)C)C(=O)N(C)[C@@H](CC(C)C)C(=O)NCC(=O)N1 [DP-575] ([dV]T[NMeA][NMeF][NMeF]S(tBu)[NMeL]GD[NMeL]A-Piperidide; lactam N-9)
Result block: 28 ×10⁻⁶ cm/s

====

Papp at 18 hours, 50 µM: recorded values
assay_summary: PAMPA (parallel artificial membrane permeability assay)
Format: in vitro ADME
protocol_conditions: PAMPA; membrane permeation rate (Pe); 50 mM MOPSO buffer pH 6.5 with 5.0% glycocholic acid, 37° C., 18 hours; read-out: iPAMPA Pe
Positions of bridges follow the written chain, without caps; N, C: chain ends. Non-standard residues stand in square brackets, D forms with d. Residues, ends and D or L forms follow the SMILES beside them. *: point of attachment. NMeF = CN[C@@H](Cc1ccccc1)C(=O)O; NMeL = CN[C@@H](CC(C)C)C(=O)O; NMeA = CN[C@@H](C)C(=O)O; Piperidide = C1CCN(*)CC1
Just the number in ×10⁻⁶ cm/s, nothing appended.

compound	Papp at 18 hours, 50 µM [×10⁻⁶ cm/s]
CC[C@H](C)[C@@H]1NC(=O)[C@H](Cc2ccccc2)N(C)C(=O)[C@H](CC(C)C)N(C)C(=O)[C@H](Cc2ccccc2)NC(=O)[C@H](C)N(C)C(=O)[C@H]([C@@H](C)O)NC(=O)[C@H](C(C)C)NC(=O)[C@@H](C(C)C)NC(=O)C[C@@H](C(=O)N(C)[C@@H](Cc2ccccc2)C(=O)N[C@H](C(=O)N(C)[C@@H](C)C(=O)N(C)[C@@H](CC(C)C)C(=O)N[C@H](C(=O)N2CCCCC2)[C@@H](C)CC)C(C)C)NC1=O [DP-935] ([dV]VT[NMeA]F[NMeL][NMeF]ID[NMeF]V[NMeA][NMeL]I-Piperidide; lactam N-9)	0.1

// switching to the query compound
Query block: Specify reported Papp at 18 hours, 50 µM for the compound shown: CNC(=O)CC[C@@H]1NC(=O)[C@H](CC(C)C)N(C)C(=O)[C@H](C)N(C)C(=O)[C@H](CC(C)C)N(C)C(=O)[C@H](Cc2ccccc2)NC(=O)[C@H](Cc2ccccc2)N(C)C(=O)[C@H](CC(C)C)NC(=O)[C@H](CC(C)C)N(C)C(=O)[C@H](C)N(C)C(=O)[C@@H](C(C)C)NC(=O)C[C@@H](C(=O)N2CCCCC2)NC1=O [DP-626] ([dV][NMeA][NMeL]L[NMeF]F[NMeL][NMeA][NMeL]E(NHMe)D-Piperidide; lactam N-11)
Result block: 36

====

# microsomal CLint at 1 uM per entry
assay_summary: Metabolic stability in human hepatic microsome
Format: in vitro ADME
protocol_conditions: microsomes, pH 7.4; human hepatic microsome, NADPH(+); read-out: CL NADPH(+)
Positions of bridges follow the written chain, without caps; N, C: chain ends. Non-standard residues stand in square brackets, D forms with d. Residues, ends and D or L forms follow the SMILES beside them. *: point of attachment. NMeF = CN[C@@H](Cc1ccccc1)C(=O)O; NMeI = CC[C@H](C)[C@H](NC)C(=O)O; NMeL = CN[C@@H](CC(C)C)C(=O)O; NMeV = CN[C@H](C(=O)O)C(C)C; NMeA = CN[C@@H](C)C(=O)O; Piperidide = C1CCN(*)CC1; dNMeA = CN[C@H](C)C(=O)O; NPrGly = CCCNCC(=O)O; Sar = CNCC(=O)O; tBu = CC(C)(C)*
Your answer is read as µL/min/mg, so omit the unit and give the number.

compound	unit_of_measure	quantitative_result
CC[C@H](C)[C@@H]1NC(=O)[C@H](Cc2ccccc2)N(C)C(=O)[C@H](Cc2ccccc2)NC(=O)[C@H](C(C)C)N(C)C(=O)[C@H](CC(C)C)N(C)C(=O)[C@H](CC(C)C)NC(=O)[C@H](C)NC(=O)C[C@@H](C(=O)N2CCCCC2)NC(=O)[C@H]([C@@H](C)O)NC(=O)CNC(=O)[C@H](C)N(C)C1=O [DP-85] (AL[NMeL][NMeV]F[NMeF]I[NMeA]GTD-Piperidide; lactam N-11)	µL/min/mg	58

Query block: Give the value of microsomal CLint at 1 uM reported for the following: CC[C@H](C)[C@H]1C(=O)N[C@H](C(=O)N2CCCCC2)CC(=O)N[C@@H](C)C(=O)N[C@@H]([C@@H](C)O)C(=O)N(C)[C@@H](Cc2ccccc2)C(=O)N[C@@H](CC(C)C)C(=O)N2CCC[C@H]2C(=O)N[C@@H](C(C)C)C(=O)N[C@@H](Cc2ccccc2)C(=O)N(C)CC(=O)N[C@@H](CC(C)C)C(=O)N[C@@H](C)C(=O)N1C [DP-24] (AT[NMeF]LPVF[Sar]LA[NMeI]D-Piperidide; lactam N-12)
Result block: 52

Query block: Look up and report measured microsomal CLint at 1 uM for this entry: CCCN1CC(=O)N(C)[C@@H](CC(C)C)C(=O)N[C@@H]([C@@H](C)O)C(=O)N(C)[C@@H](C)C(=O)N(C)[C@@H](CC(C)C)C(=O)N(C)[C@@H]([C@@H](C)CC)C(=O)N[C@@H](COC(C)(C)C)C(=O)N[C@H](C(=O)N2CCCCC2)CC(=O)N(C)[C@@H](C)C(=O)N(C)[C@@H](Cc2ccccc2)C1=O [DP-540] ([NMeA][NMeF][NPrGly][NMeL]T[NMeA][NMeL][NMeI]S(tBu)D-Piperidide; lactam N-10)
Result block: 67

Query block: For the compound CC[C@H](C)[C@@H]1NC(=O)[C@H](Cc2ccccc2)NC(=O)[C@@H](C)N(C)C(=O)C[C@@H](C(=O)N2CCCCC2)NC(=O)[C@H](Cc2ccccc2)N(C)C(=O)[C@H](Cc2ccccc2)NC(=O)[C@H](CC(C)C)NC(=O)[C@H]([C@@H](C)O)NC(=O)[C@H](CC(C)C)NC(=O)[C@H](CC(C)C)N(C)C1=O [DP-338] ([dNMeA]FI[NMeL]LTLF[NMeF]D-Piperidide; lactam N-10) , report microsomal CLint at 1 uM.
Result block: 146

Query block: Return microsomal CLint at 1 uM (reported value) for this compound: CC[C@H](C)[C@@H]1NC(=O)[C@H](Cc2ccccc2)N(C)C(=O)[C@H](Cc2ccccc2)NC(=O)[C@H](C(C)C)N(C)C(=O)[C@H](CC(C)C)N(C)C(=O)[C@H](CC(C)C)NC(=O)[C@@H](C)NC(=O)C[C@@H](C(=O)N2CCCCC2)NC(=O)[C@H]([C@@H](C)O)NC(=O)[C@H](C)NC(=O)[C@H](C)N(C)C1=O [DP-226] ([dA]L[NMeL][NMeV]F[NMeF]I[NMeA]ATD-Piperidide; lactam N-11)
Result block: 46
